Experiment: stability in vivo (radio-HPLC of blood sample)
Conditions: BALB/c mice, i.v., 10 min p.i.
Where a SMILES comes first, the peptide text is derived from it. [ ]: non-standard residue; d: D form. The star is where a group is joined. DOTA = O=C(O)CN1CCN(CC(=O)O)CCN(CC(=O)*)CCN(CC(=O)O)CC1; 1Nal = N[C@@H](Cc1cccc2ccccc12)C(=O)O; NMeNle = CCCC[C@H](NC)C(=O)O
measured_metric: intact radioligand present in the blood at 10 min p.i. (%)
Quick note: give the figure in %, leave out the unit.

| compound | display_unit | result_number |
| --- | --- | --- |
| CCCC[C@@H](C(=O)N[C@@H](CC(=O)O)C(=O)N[C@@H](Cc1cccc2ccccc12)C(N)=O)N(C)C(=O)[C@H](Cc1c[nH]c2ccccc12)NC(=O)CNC(=O)[C@H](Cc1ccc(O)cc1)NC(=O)[C@@H]1CCCN1C(=O)[C@@H](CCC(=O)O)NC(=O)CN1CCN(CC(=O)O)CCN(CC(=O)O)CCN(CC(=O)O)CC1 [^177Lu-DOTA-MGS8, metal not drawn] ({DOTA}-[dE]PYGW[NMeNle]D[1Nal]-NH2) | % | 80.5 |
| CCCC[C@@H](C(=O)N[C@@H](CC(=O)O)C(=O)N[C@@H](Cc1cccc2ccccc12)C(N)=O)N(C)C(=O)[C@H](Cc1c[nH]c2ccccc12)NC(=O)CNC(=O)[C@H](Cc1ccc(O)cc1)NC(=O)[C@H](C)NC(=O)[C@@H](CCC(=O)O)NC(=O)CN1CCN(CC(=O)O)CCN(CC(=O)O)CCN(CC(=O)O)CC1 [^111In-DOTA-MGS5, metal not drawn] | % | 82.7 |

**Q:** // query intact radioligand present in the blood at 10 min p.i. value for entry CCCC[C@@H](C(=O)N[C@@H](CC(=O)O)C(=O)N(C)[C@@H](Cc1cccc2ccccc12)C(N)=O)N(C)C(=O)[C@H](Cc1c[nH]c2ccccc12)NC(=O)CNC(=O)[C@H](Cc1ccc(O)cc1)NC(=O)[C@H](C)NC(=O)[C@@H](CCC(=O)O)NC(=O)CN1CCN(CC(=O)O)CCN(CC(=O)O)CCN(CC(=O)O)CC1 [^111In-DOTA-MGS11, metal not drawn]
**A:** 98.4

###

System: serum proteins
Assay: protein binding to serum proteins (Sephadex G-50 size-exclusion chromatography)
Type: in vitro ADME
Conditions: human serum, 37° C., 24 h
Experimental: Additionally, protein binding to serum proteins was investigated. For this purpose the ^111In-labelled peptidomimetics were incubated in duplicates in fresh human serum at 37° C. (500 pmol/mL) and analyzed after 4 and 24 h by Sephadex G-50 size-exclusion chromatography (GE Healthcare Illustra, Little Chalfont, UK). […]
measured_metric: Percentage of radioligand bound to serum proteins after 24 h incubation

**Q:** Which value of Percentage of radioligand bound to serum proteins after 24 h incubation has been reported for CCCC[C@@H](C(=O)N[C@@H](CC(=O)O)C(=O)N[C@@H](Cc1ccc2ccccc2c1)C(N)=O)N(C)C(=O)[C@H](Cc1c[nH]c2ccccc12)NC(=O)CNC(=O)[C@H](Cc1ccc(O)cc1)NC(=O)[C@H](C)NC(=O)[C@@H](CCC(=O)O)NC(=O)CN1CCN(CC(=O)O)CCN(CC(=O)O)CCN(CC(=O)O)CC1 [^111In-DOTA-MGS5-2, metal not drawn] in the records?
**A:** ~30%

Values from patent US12049518B2
